# Species on record: Rattus norvegicus
# test_details: DrugMatrix - Regimen: Daily Repeat
# Type: toxicity, organism-based, Sprague-Dawley
# Parameters: regimen Daily Repeat, gender Male, age 6-8 weeks
# test_parameters: in vivo, po, 0 mg/kg, 72 h, tissue Plasma, route oral GAVAGE, dose level Control, time 3 day, vehicle 100 % WATER
Recorded CREATININE, one value per entry.
reported_property: CREATININE (mg/dL)

* Nc1ccn([C@@H]2CS[C@H](CO)O2)c(=O)n1 [LAMIVUDINE] | 0.22
* Cc1ncc([N+](=O)[O-])n1CCO [METRONIDAZOLE] | 0.18
* CC(C)(C)c1ccc(C(=O)CCCN2CCC(OC(c3ccccc3)c3ccccc3)CC2)cc1 [EBASTINE] | 0.15

* * *

# Species: Rattus norvegicus
# test_details: DrugMatrix - Regimen: Daily Repeat
# Format: toxicity, organism-based, Sprague-Dawley
# Set-up: regimen Daily Repeat, gender Male, age 6-8 weeks
# test_parameters: in vivo, po, 0 mg/kg, 72 h, tissue Plasma, route oral GAVAGE, dose level Control, time 3 day, […]
Some molecules, each annotated with its measured LIPASE.
reported_property: LIPASE (u/L)

* COc1ccc2[nH]c([S+]([O-])Cc3ncc(C)c(OC)c3C)nc2c1 (centres undefined) [OMEPRAZOLE] | 10.33
* CC(=O)Nc1ccc(O)cc1 [ACETAMINOPHEN] | 10
* CCOC(=O)C1=C(C)NC(C)=C(C(=O)OC)C1c1cccc([N+](=O)[O-])c1 (centres undefined) [NITRENDIPINE] | 9.5
* CC(C)Cc1ccc(C(C)C(=O)O)cc1 (centres undefined) [IBUPROFEN] | 12.67

* * *

# Species on record: Rattus norvegicus
# test_details: DrugMatrix - Regimen: Daily Repeat
# Assay type: toxicity, organism-based, Sprague-Dawley
# Set-up: regimen Daily Repeat, gender Male, age 6-8 weeks
# test_parameters: in vivo, po, 0 mg/kg, 120 h, tissue Blood, route oral GAVAGE, dose level Control, time 5 day, vehicle .5 % CMC
reported_property: HEMATOCRIT (%)

* O=[N+]([O-])c1ccccc1 | 44.17
* CN1CCC(=C2c3ccccc3C=Cc3ccccc32)CC1 | 37.87
* Cc1onc(-c2ccccc2)c1-c1ccc(S(N)(=O)=O)cc1 | 45.47
* CC[C@@H](CO)NCCN[C@@H](CC)CO | 36.55

* * *

Reported ABSOLUTE EOSINOPHIL values for the following molecules.
# Species: Rattus norvegicus
# test_details: DrugMatrix - Regimen: Daily Repeat
# Format: toxicity, organism-based, Sprague-Dawley
# Design: regimen Daily Repeat, gender Male, age 6-8 weeks
# test_parameters: in vivo, po, 0 mg/kg, 120 h, tissue Blood, route oral GAVAGE, dose level Control, time 5 day, […]
reported_property: ABSOLUTE EOSINOPHIL (CELLS/uL)

- CC(=O)Nc1ccc(O)cc1: 0
- CC/C(=C(/CC)c1ccc(O)cc1)c1ccc(O)cc1: 37.5
- O=NN(CCCl)C(=O)NCCCl: 0
- CC(C)(Oc1ccc(C2CCCc3ccccc32)cc1)C(=O)O (stereo not given): 22.67

* * *

Quick reference for BLOOD UREA NITROGEN among some compounds
# Species: Rattus norvegicus
# test_details: DrugMatrix - Regimen: Daily Repeat
# Assay type: toxicity, organism-based, Sprague-Dawley
# Set-up: regimen Daily Repeat, gender Male, age 6-8 weeks
# test_parameters: in vivo, po, 0 mg/kg, 72 h, tissue Plasma, route oral GAVAGE, dose level Control, time 3 day, vehicle .5 % CMC
reported_property: BLOOD UREA NITROGEN

• CN1CCC(=C2c3ccccc3C=Cc3ccccc32)CC1 [CYPROHEPTADINE] = 15.67 mg/dL
• O=[N+]([O-])c1ccccc1 [NITROBENZENE] = 16.67 mg/dL
• CNC(=C[N+](=O)[O-])NCCSCc1ccc(CN(C)C)o1 [RANITIDINE] = 15 mg/dL

Data origin: ChEMBL document CHEMBL3885881
